FYI, the data here is from the nanobody polyreactivity screen of Harvey et al. (2022).

Assay: yeast display, Sf9 membrane polyspecificity reagent, FACS + sequencing; frameworks hold sequencing errors
measured_property: polyreactivity (PSR sort gate)

QVQLVESGGGLVQAGGSLRLSCAASGRTFRSYAMGWYRQAPGKERELVASITSSGRTNYADSVKGRFTISRDNAKNTVYLQMNSLKPEDTAVYYCAAVRYYDYLSSWRYDYWGQGTQVTVSS = low polyreactivity
QVQLQESAGGMVQAGGSLRLRCSASGYISCDASMGWYRQAPGKERELAASITKGSRTNYADSVKGRFTIRDNAKNTVYLQMNSLKPEVTAVCYCAVTYPYWGDYTYWGQGTQVTVSS = low polyreactivity

* * *

Experiment: yeast display, Sf9 membrane polyspecificity reagent, FACS + sequencing; frameworks hold sequencing errors
measured_property: polyreactivity (PSR sort gate)

Answered examples (4):
QVQLVESGGGLVQAGGSLRLSCAASGRIFWDYAMGWYRQAPGKERELVAGISYSGGSTSYADSVKGRFTISRDNAKNTVYLQMNSLKPEDTAVYYCAARPSGTFFRDYDYWGQGTQVTVSS = low polyreactivity
QVQLVESGGGLVQAGGSLRLSCAASGRIFALYAMGWYRQAPGKDRELVAAITSSDGSTYYADSVKGRFTISRDIAKNSVYFQMKSLKPEDTAVYYSAAVWWRYYQDPYYYWGQGTQVTVSS = low polyreactivity
QVHLVDSGGGLVQAGGSLRLRCAASGSSFNPNAMGLYRQDPGKERELVAAITSGGSTYYADSVKGRFTISRDNAKNTVYLQINSLKQEDTAVYYCNKALTSKDYPVRTVERDYWGQGTKVTVSS = low polyreactivity
QVQLVESGGGLVQAGGSLRLSCAASGSIFRSNDMGWYRQAPGKERELVARITSSVGSTYYADSVKGRFTISRDNAKNTVYLQMNSLKAEDTAVYYGAKRYYHYPYGYRDYDYWGQGTQVTVSS = low polyreactivity

Look up polyreactivity (PSR sort gate) for this sequence: QVQLVESGGGLVQAGGSLRLSCAASGITFGINAMGWYRQAPGKERELVAAITSGGSTYYADSVKGRFTISRDNAKNTVYLQMNSLKPEDTAVYDCAADYQYFVYCEYDYWGQGTQVTVSS
low polyreactivity

* * *

Assay: yeast display, Sf9 membrane polyspecificity reagent, FACS + sequencing; frameworks hold sequencing errors
measured_property: polyreactivity (PSR sort gate)

Answered examples (4):
QVQLVESGGGLVQAGGSLRLSCAASGNTFYSNAMRWYRQAPGKERELVAAISTSGGSTFYADSVKGRFTISRDNAKNTVYLQMNSLKPEDTAVYYCAARSLRGHRYRYDYWGQGTQVTVSS = high polyreactivity
QVHLVESGRGLFQAGGSLRLSCAASGRIFPGYAMGWSRQAPGKESELVAGITWRTARTYYAYSVKGRFTISRDIAKNTVYLQMNSLKPEDTAVYYCAAKYARYGRDVIFDYWGQGTEVTVSS = high polyreactivity
QVQLVESGGGLVQAGGSLRLSCAASGLTFNYYDMGWYRQAPGKERELVAAISRSGTNTSYADSVKGRFTISRDNAKNTVYLQMNSLKPEDTAVYYCNAAGVYLAAGPFTANFNYNYWGQGTQVTVSS = low polyreactivity
QVQLVESGGGLVQAGGSLRLSCAASGSIFFPYVMGWYRQAPGKERELVAAITYRAGSTYYADSVKGRFTISRDHAKNTFYLQMNSLKPEDTAVYYCNKEAAPLGFVTSYYGRDYWGQGTQVTVSS = low polyreactivity

Read the next record carefully.
Look up polyreactivity (PSR sort gate) for this sequence: QVQLVESGGGLVQAGGSLRLSCAASGITFNWYAMGWYRQAPGKERELVAAISGSGGRTYYADSVKGRFTISRDYPKNTVYLQMTSLKPEDTAVYYCNKVPYYAGQNYVYWGQGTQVTVSS
high polyreactivity

* * *

Test: yeast display, Sf9 membrane polyspecificity reagent, FACS + sequencing; frameworks hold sequencing errors
measured_property: polyreactivity (PSR sort gate)

QVQLVESGGGLVQAGGSLRLSCAASGSIFGSYAMGWYRQAPGNERELVAAISKSGGNTYYADSVKGRFTISRDNAKNTVYLQMNSLKPEDTAVYYCAARYRFLRPKVNYWGQGTQVTVSS = high polyreactivity
QVQLVESGGGLVQAGGSLRLSCADSGSTFWFYERGWYSQAPGKVRELVAVISNSGSTYYADSVKGLFTISRDNAKNTVYLQMNSLKPEDTAVYYCNKDGGGDSYWYDYWGQGTQVTVSS = low polyreactivity
QVQLVESGGGLVQAGGILRVSCAASGSTFRRYAMGWSRQAPGKERELVAAIRQRGTSTYYADSVKGRFTISRDNAKNTVYLQMNSLKPEDTAVYYCAAGPSLWLFNSWGQGTQVTVSS = high polyreactivity
QVQLVESGGGLVQAGGSLRLSCAASGSTFTVNAMGWYREAPGKERELVAAITTSGGSTYYADSVKGRFTISRDNAENTVYFQMNSLKPEDTAVYYCNADGPWREVERPFRKEGNYWGQGTQVTVSS = low polyreactivity

Read the next record carefully.
Look up polyreactivity (PSR sort gate) for this sequence: QVQLVESGGGLVQAGGSLRLSCAASGITFGRNAMGWYRQAPGKERELVAAISRGGSTNYADSVKGRFTISRDNAKNTVYLQMNSLKPEDTAVYYCNARSWPHGSWIPIHRRYGYWGQGTQVTVSS
high polyreactivity

* * *

Experiment: yeast display, Sf9 membrane polyspecificity reagent, FACS + sequencing; frameworks hold sequencing errors
measured_property: polyreactivity (PSR sort gate)

QVQLVESGGGLVQAGGSLRLSCAASGSIFGRYAMGWYRQARGKERELVAAISWSGGSTYYADSVKGRFTISRDNAKNTVYLQMNSLKPEDTAVYYCAANYKYAYEYWGQGTQVTVSS = high polyreactivity
QVQHVESGGGLVQAGGSLRLSCAASGSTFSQYGMGWYRQAPGKEREFVAGISGSGGRTYYADSVKGRFTSSRDNAKNTVYLQMNSLKPEDTAVYYCAAETVYKWWYDYYYWGQGTQVTVSS = high polyreactivity

* * *

Experiment: yeast display, Sf9 membrane polyspecificity reagent, FACS + sequencing; frameworks hold sequencing errors
measured_property: polyreactivity (PSR sort gate)

Answered examples (6):
QVQHVESGGGLVQAVGSLRLSFAASGSIFRGYAMGGYRPAPGKERELVAAIRYSGARTYYADSVKGRFTISRDNAKNTVYLQMNSLKPEDTAVYYCNARSYSRTHYDYWGQGTQVTVSS = high polyreactivity
QVQLVESGGGLVQAGGSLRLSCAASGSIFVANAMGWYRQAPGKERELVAAISVRGGRTYYADSVKGRFTISRDNAKNTVYLQMNSLKPEDTAVYYCARVLRSDVADYDYWGQGTQVTVSS = high polyreactivity
QVQLVESGGGLVQAGGSLRLSCAASGRTFTYYAIGWYRQAPGKERELVADINRSGGDTYYADSVKGRFTISRDNAKNTVYLQMNSLKPEDTAVYYSAADDWGAQHRYDYWGQGTQVTVSS = low polyreactivity
QVQLVESGGGLVQAGGSLRLTCAASGSIFGNNAMGWYRQATGKERELVAVITDGGNTYYADSVKGRFTISRDNAKNTVYLQMNSLKPEDTAVYYCNAEWWGDSVYWGQGTQVTVSS = low polyreactivity
QVQLVESGGGLVQAGGTLRLSCAASGRTFGFYAMGWYRQAPGKERELVAVITRGGYTSYADSVKGRFTISRDNAKNTVYLQMNSLKPEDTAVYYCAAGWHYWDHRYDYWGQGTQVTVSS = high polyreactivity
QVQLVESGGGLVQAGGSLRLSCAASGFILSPNTMGWYRQAPGKERALVAAISSDVSTYADSVKGRFTISRDNAKNTVYLQMNSLKPEDTAVYYCNADAFGYASYEYWGQGTQVTVSS = low polyreactivity

Look up polyreactivity (PSR sort gate) for this sequence: QVQLVESGGGLVQAGGSLRLSCAASGFTFQEYAMGWYRQAPGKERELVAAITSGTTTNYADSVKGRFTISRDNAKNTVYFQMNSLKPEDTAVYYCNVRSQSGSYRVYEYDYWGQGTQVTVSS
low polyreactivity

Look up polyreactivity (PSR sort gate) for this sequence: QVQLVESGGGLVQAVGSLRLSCAASGFIFVRYAMGWYRQAPAKERELVAAISYSGGSTYYADSVKGRFTISRDNAKNTVYLQMNSLKPEDTAVYYCAAEYYSGGYRYYAEYGYWGQGTQVTVSS
high polyreactivity

Look up polyreactivity (PSR sort gate) for this sequence: QVQLVESGGGLVQAGGSLRLSCAASGIIFCDNAMGWYRHAPGKERELVAAITIGGTSTYYADSVKGRFTISRDNAKNTVYLQMNSLKPEDTAVYYCAKTILYDCDYWGQGTQVTVSS
low polyreactivity

Look up polyreactivity (PSR sort gate) for this sequence: QVQLVESGGGLVQAGGSLRLSCAASGSTQYGYAMGWYRQAPRKERELVAAINTGGSTNYADSVKGRFSISRDNAKNSVYLQMNSLKPEDTAVYYCAADYEWDAFSYDYWGQGTQVTVSS
low polyreactivity

Look up polyreactivity (PSR sort gate) for this sequence: QVQLVESGGGLVQAGGSLRLSCAASGSTFSYNAMGWYRQAPGKERELVAAIRTSGGRTYYADSVKGRFTISRDNAKNTVYLQMNSLKPEDTAVYYCAKRWVYRYGYEYWGQGTQVTVSS
high polyreactivity
